Molecular target: E. coli GroEL/ES (Escherichia coli)
Construct: made in house; host or cells: GroEL in NEB 5-alpha E. coli; GroES in E. coli BL21 (DE3)
Sequence (P0A6F5 2-548): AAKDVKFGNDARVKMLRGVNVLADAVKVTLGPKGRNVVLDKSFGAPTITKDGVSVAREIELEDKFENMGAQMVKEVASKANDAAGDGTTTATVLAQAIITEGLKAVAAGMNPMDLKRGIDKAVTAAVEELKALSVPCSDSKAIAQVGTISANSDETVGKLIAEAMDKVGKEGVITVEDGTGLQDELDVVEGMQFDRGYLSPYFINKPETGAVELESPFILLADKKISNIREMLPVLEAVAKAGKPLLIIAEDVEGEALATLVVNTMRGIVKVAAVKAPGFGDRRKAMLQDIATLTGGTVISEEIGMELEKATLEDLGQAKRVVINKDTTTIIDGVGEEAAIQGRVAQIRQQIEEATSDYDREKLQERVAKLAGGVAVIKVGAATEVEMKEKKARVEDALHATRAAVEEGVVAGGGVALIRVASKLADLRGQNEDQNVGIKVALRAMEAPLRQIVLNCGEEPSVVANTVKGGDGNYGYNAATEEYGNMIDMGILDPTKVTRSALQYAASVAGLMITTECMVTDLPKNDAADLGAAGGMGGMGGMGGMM
Experiment: GroEL/ES-mediated dRho refolding assay
Type: biochemical
Param label: returns true when IC50 < 9 µM, returns false otherwise, including exact equality.

INSERT INTO assay_data (compound, label_class) VALUES
  ('COc1ccc(C(=O)N/N=C/c2ccccc2)cc1 [Compound 37, N′-benzylidene-4-methoxybenzohydrazide]', 'false');

Kindly consider the entry below.
Input: I'd appreciate it if you could check whether `O=C(N/N=C/c1ccc(O)c2ncccc12)c1ccccc1Oc1ccccc1` has IC50 smaller than 9 µM.
Output: true

###

Experiment: in vitro
Settings: human
So I've got a bunch of compounds here, and I need their CC50 at 48 h values.

Example results:
INSERT INTO results (mol_smiles, attribute_measured, result) VALUES
  ('COc1ccc(C(=O)N/N=C/c2ccco2)cc1', 'CC50 at 48 h', '> 100 µM'),
  ('COc1ccc(C(=O)N/N=C/c2cccc3ccccc23)cc1', 'CC50 at 48 h', '> 100 µM'),
  ('O=C(N/N=C/c1ccc(O)c2ccccc12)c1ccccc1', 'CC50 at 48 h', '> 100 µM');

Go through the items and report each one's CC50 at 48 h.
1. O=C1CN(/N=C/c2ccc(O)c3ncccc23)C(=O)N1
2. CCOc1ccc(S(=O)(=O)Nc2ccc(C(=O)N/N=C/c3ccc([N+](=O)[O-])o3)cc2)cc1
3. COc1ccc(C(=O)N/N=C/c2cccc3ncccc23)cc1
4. O=C(N/N=C/c1ccc([N+](=O)[O-])o1)c1ccc(NS(=O)(=O)c2ccc(Br)cc2)cc1
5. COc1ccc(C(=O)N/N=C/c2ccc(O)cc2)cc1
6. O=C(N/N=C/c1cccc2ccccc12)c1ccccc1

Output:
1: > 100 µM; 2: 85 µM; 3: > 100 µM; 4: 90 µM; 5: > 100 µM; 6: > 100 µM

###

System: Staphylococcus aureus strain Seattle 1945 (ATCC #25923)
Test: bacterial proliferation assay, S. aureus
Type: cell-based
Settings: read-out: Bacterial Proliferation EC50 S. aureus
attribute measured: pEC50
Answers are plain numbers, as −log10 of the molar value.

Sample `COc1ccc(C(=O)N/N=C/c2ccc(O)c3ncccc23)cc1` ; pEC50 observed: 4.06

###

Molecular target: E. coli GroEL/ES (Escherichia coli)
Construct: made in house; host or cells: GroEL in NEB 5-alpha E. coli; GroES in E. coli BL21 (DE3)
Test: GroEL/ES-mediated dRho refolding assay
Type: biochemical
For each record, write down the corresponding IC50.

Consider the reported IC50 for these compounds:
INSERT INTO results (compound, target_entity, result) VALUES
  ('CCOc1ccc(S(=O)(=O)Nc2ccc(C(=O)N/N=C/c3ccc([N+](=O)[O-])o3)cc2)cc1', 'E. coli GroEL/ES (Escherichia coli)', '66 µM'),
  ('COc1ccc(C(=O)N/N=C/c2ccc(O)cc2)cc1', 'E. coli GroEL/ES (Escherichia coli)', '> 250 µM'),
  ('CN(C)c1ccc(C(=O)N/N=C/c2ccc(O)c3ncccc23)cc1', 'E. coli GroEL/ES (Escherichia coli)', '7.9 µM'),
  ('COc1ccc(C(=O)N/N=C/c2ccc(O)c3ccccc23)cc1', 'E. coli GroEL/ES (Escherichia coli)', '117 µM'),
  ('O=C(N/N=C/c1ccc([N+](=O)[O-])o1)c1ccccc1', 'E. coli GroEL/ES (Escherichia coli)', '100 µM');

I would be grateful if you could provide IC50 for each of the following entries.
1. COc1ccc(C(=O)N/N=C/c2ccco2)cc1
2. CCOc1ccc(S(=O)(=O)Nc2ccc(C(=O)N/N=C/c3ccc(O)c4ncccc34)cc2)cc1
3. O=C(N/N=C/c1ccc(O)c2ccccc12)c1ccccc1
4. COc1ccc(C(=O)NN)cc1 [Compound 42, reference compound]

Output:
1: > 250 µM; 2: 1.4 µM; 3: 216 µM; 4: > 250 µM

###

Test system: Enterobacter cloacae strain CDC 442-68 (ATCC #13047)
Experiment: bacterial proliferation assay, E. cloacae
Format: cell-based
Conditions: ATCC13047, read-out: Bacterial Proliferation EC50 E. cloacae
attribute measured: pEC50
Numbers only, as −log10 of the molar value.

Below, 3 compounds whose answers are already recorded.
INSERT INTO assay_data (compound, attribute_measured, quantitative_result) VALUES
  ('O=C(N/N=C/c1ccc(O)c2ncccc12)c1cccs1 [Compound 3]', 'pEC50', 4.04),
  ('O=C(N/N=C/c1ccc([N+](=O)[O-])o1)c1ccc(Cl)s1 [Compound 17]', 'pEC50', 4.31),
  ('O=C1CN(/N=C/c2ccc([N+](=O)[O-])o2)C(=O)N1 [Nitrofurantoin, reference compound]', 'pEC50', 4.44);

The measured pEC50 that COc1ccc(C(=O)N/N=C/c2ccc(O)c3ncccc23)cc1 [Compound 1] showed for Enterobacter cloacae strain CDC 442-68 (ATCC #13047) is 4.00

###

Provide the reported EC50 of each item.
Tested on: Klebsiella pneumoniae strain NCTC 9633 (ATCC #13883)
Assay: bacterial proliferation assay, K. pneumoniae
Format: cell-based
Conditions: Klebsiella pneumoniae, read-out: Bacterial Proliferation EC50 K. pneumoniae

INSERT INTO assay_data (molecule, attribute_measured, result) VALUES
  ('O=C(N/N=C/c1ccc(O)c2ncccc12)c1ccccc1Oc1ccccc1', 'EC50', '> 100 µM'),
  ('O=C(N/N=C/c1ccc(O)c2ncccc12)c1ccncc1', 'EC50', '> 100 µM'),
  ('COc1ccc(C(=O)N/N=C/c2ccccc2)cc1 [Compound 37, N′-benzylidene-4-methoxybenzohydrazide]', 'EC50', '> 100 µM'),
  ('COc1ccc(C(=O)N/N=C/c2ccc([N+](=O)[O-])o2)cc1', 'EC50', '> 100 µM'),
  ('O=C(N/N=C/c1ccc([N+](=O)[O-])o1)c1cccc2ccccc12', 'EC50', '> 100 µM'),
  ('O=C(N/N=C/c1ccccc1)c1ccccc1 [Compound 38, N′-benzylidenebenzohydrazide]', 'EC50', '> 100 µM'),
  ('O=C(N/N=C/c1ccc(O)c2ncccc12)c1ccc(Cl)s1', 'EC50', '> 100 µM'),
  ('CCN(CC)S(=O)(=O)c1cccc(C(=O)N/N=C/c2ccc(O)c3ncccc23)c1', 'EC50', '> 100 µM');

// each listed molecule needs a value for EC50
1. O=[N+]([O-])c1ccc(O)c2ncccc12 [Nitroxoline, reference compound]
2. CCOc1ccc(S(=O)(=O)Nc2ccc(C(=O)N/N=C/c3ccc([N+](=O)[O-])o3)cc2)cc1
3. O=C(N/N=C/c1ccc([N+](=O)[O-])o1)c1ccccc1
4. O=C(N/N=C/c1ccc(O)c2ncccc12)c1cccc(Oc2ccccc2)c1
5. O=Cc1ccc([N+](=O)[O-])o1 [Compound 41, reference compound]
6. COc1ccc(C(=O)N/N=C/c2cccc3ncccc23)cc1
7. O=C(N/N=C/c1ccc([N+](=O)[O-])o1)c1cccs1
8. CN(C)c1ccc(C(=O)N/N=C/c2ccc(O)c3ncccc23)cc1

Output:
["2.8 µM", "> 100 µM", "36 µM", "> 100 µM", "10 µM", "> 100 µM", "16 µM", "> 100 µM"]

###

Target: native MDH (Sus scrofa)
Sequence (P00346 25-338): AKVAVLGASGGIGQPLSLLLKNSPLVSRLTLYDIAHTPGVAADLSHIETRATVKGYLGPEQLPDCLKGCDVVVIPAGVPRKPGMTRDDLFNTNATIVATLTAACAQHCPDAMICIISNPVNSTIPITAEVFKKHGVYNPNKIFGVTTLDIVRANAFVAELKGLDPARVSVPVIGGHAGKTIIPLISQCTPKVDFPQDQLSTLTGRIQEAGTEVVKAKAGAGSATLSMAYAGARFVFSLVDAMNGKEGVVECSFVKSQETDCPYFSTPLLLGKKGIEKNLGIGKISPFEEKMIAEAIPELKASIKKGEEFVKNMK
Assay: native MDH activity counter-screen in the presence of E. coli NfsB nitroreductase
Assay type: biochemical, pig
pIC50: −log10 of the molar value.
attribute measured: pIC50

INSERT INTO results (compound, attribute_measured, result) VALUES
  ('O=C(N/N=C/c1ccc([N+](=O)[O-])o1)c1ccc(NS(=O)(=O)c2ccc(Br)cc2)cc1', 'pIC50', '< 4.25');

Next up:
Please fill in: pIC50 reported for O=C(N/N=C/c1ccc([N+](=O)[O-])o1)c1ccc(O)cc1 [Nifuroxazide, reference compound] = < 4.25

###

Target: E. coli GroEL/ES (Escherichia coli)
Construct: made in house; host or cells: GroEL in NEB 5-alpha E. coli; GroES in E. coli BL21 (DE3)
Experiment: GroEL/ES-mediated dMDH refolding assay in the presence of E. coli NfsB nitroreductase
Format: biochemical
Please go through the items and note down their IC50.
Numbers only, in µM.

Record IC50 for all entries; do not skip any.
1. CCN(CC)S(=O)(=O)c1cccc(C(=O)N/N=C/c2ccc(O)c3ncccc23)c1
2. CCOc1ccc(S(=O)(=O)Nc2ccc(C(=O)N/N=C/c3ccc(O)c4ncccc34)cc2)cc1
3. CN(C)c1ccc(C(=O)N/N=C/c2ccc(O)c3ncccc23)cc1
4. O=C(N/N=C/c1ccc(O)c2ncccc12)c1cccc2ccccc12

Output:
[21, 3.1, 25, 7.7]

// for each compound below, give its IC50
1. O=C(N/N=C/c1ccc(O)c2ncccc12)c1ccc(NS(=O)(=O)c2cccs2)cc1
2. O=C(N/N=C/c1ccc(O)c2ncccc12)c1cccs1

Output:
[1.9, 29]

// for each compound in input: emit IC50
1. O=C(N/N=C/c1ccc([N+](=O)[O-])o1)c1cccc2ccccc12
2. O=C(N/N=C/c1ccc(O)c2ncccc12)c1ccc(Cl)s1
3. O=C(N/N=C/c1ccc([N+](=O)[O-])o1)c1ccc(NS(=O)(=O)c2ccc(Br)cc2)cc1
4. COc1ccc(C(=O)N/N=C/c2ccc(O)c3ncccc23)cc1
5. O=C(N/N=C/c1ccc(O)c2ncccc12)c1ccc(O)cc1
6. O=C(N/N=C/c1ccc(O)c2ncccc12)c1ccc(NS(=O)(=O)c2ccc(Br)cc2)cc1
7. O=C(N/N=C/c1ccc([N+](=O)[O-])o1)c1ccc(NS(=O)(=O)c2cccs2)cc1
8. CCN(CC)S(=O)(=O)c1cccc(C(=O)N/N=C/c2ccc([N+](=O)[O-])o2)c1

Output:
1. 5.3
2. 4
3. 2
4. 66
5. 16
6. 3.6
7. 6
8. 6

Cited source for all entries: patent US20220009914A1
